- measurement protocol: Rat serum pharmacokinetics after 1.5-hour IV infusion
- Format: in vivo
- test context: rat serum, 1.5-hour IV infusion, dose 20 mg/kg; read-out: Cmax
- Description: In the experiment depicted in Table 2, rat serum pharmacokinetics of compounds selected inhibitor compounds was evaluated after 1.5-hour IV infusion of 1.5 ml solution of corresponding efflux pump inhibitor in 0.9% saline. Depending on the concentration used the total infused dose was 10 or 20 mg/kg. A two-compartment model was used to fit the data and calculate PK parameters.
value type: Cmax (ng/mL)
Output spec: scalar in ng/mL, unitless text.

input: Entry `C[C@@H](N)C(=O)N[C@@H](CCC[N+](C)(CCN)CCN)C(=O)N[C@@H](Cc1ccc(C(F)(F)F)cc1)C(=O)Nc1cnc2ccccc2c1` : reported Cmax = ?
output: 40200

input: Entry `C[N+](C)(CCN)CCC[C@H](N)C(=O)N[C@H](CCc1ccccc1)C(=O)Nc1ccc(F)c(F)c1F` : reported Cmax = ?
output: 19600

input: Entry `C[N+](CCN)(CCN)CCC[C@H](N)C(=O)N[C@H](CCc1ccc(C(F)(F)F)cc1)C(=O)Nc1cnc2ccccc2c1` : reported Cmax = ?
output: 63000

input: Entry `C[N+](CCN)(CCN)CCC[C@H](N)C(=O)N[C@H](CCc1ccccc1)C(=O)Nc1cnc2ccccc2c1` : reported Cmax = ?
output: 54600

###

- measurement protocol: Rat serum pharmacokinetics after 1.5-hour IV infusion
- Type: in vivo
- test context: rat serum, 1.5-hour IV infusion, dose 10 mg/kg; read-out: Cmax
Labelling field: enter Met if recorded Cmax is less than 10 µg/mL. Enter Not met if it equals or exceeds that cut-off.

input: Dear colleague, could you confirm whether Cmax of C[N+](CCN)(CCN)CCC[C@H](N)C(=O)N[C@H](Cc1ccc(C(F)(F)F)cc1)C(=O)Nc1cnc2ccccc2c1 [Compound 10] falls below 10 µg/mL? Thanks.
output: Not met

input: Dear colleague, could you confirm whether Cmax of C[N+](CCN)(CCN)CCC[C@H](N)C(=O)N[C@@H](Cc1ccc(C(F)(F)F)cc1)C(=O)Nc1cnc2ccccc2c1 [Compound 11] falls below 10 µg/mL? Thanks.
output: Met

input: Dear colleague, could you confirm whether Cmax of C[N+](C)(CCN)CCC[C@H](N)C(=O)N[C@H](CCc1ccccc1)C(=O)Nc1cnc2ccccc2c1 [Compound 4] falls below 10 µg/mL? Thanks.
output: Not met

input: Dear colleague, could you confirm whether Cmax of C[N+](CCN)(CCN)CCC[C@H](N)C(=O)N[C@@H](CC1CCCCC1)C(=O)Nc1cnc2ccccc2c1.Cl.Cl.Cl.Cl.[Cl-] [Compound 25] falls below 10 µg/mL? Thanks.
output: Not met

input: Dear colleague, could you confirm whether Cmax of C[N+](CCN)(CCN)CCC[C@H](N)C(=O)N[C@@H](CCc1ccccc1)C(=O)Nc1cnc2ccccc2c1.Cl.Cl.[Cl-] [Compound 29] falls below 10 µg/mL? Thanks.
output: Not met

###

- measurement protocol: Rat serum pharmacokinetics after 1.5-hour IV infusion
- Assay type: in vivo
- test context: rat serum, 1.5-hour IV infusion, dose 10 mg/kg, two-compartment model; read-out: Clearance (free drug clearance) (converted)
Entries annotated with measured clearance
Output spec: scalar in mL/min/kg, unitless text.

C[N+](CCN)(CCN)CCC[C@H](N)C(=O)N[C@@H](Cc1ccc(C(F)(F)F)cc1)C(=O)Nc1cnc2ccccc2c1 = 47.8
C[N+](CCN)(CCN)CCC[C@H](N)C(=O)N[C@H](Cc1ccc(C(F)(F)F)cc1)C(=O)Nc1cnc2ccccc2c1 = 5.17
C[N+](CCN)(CCN)CCC[C@H](N)C(=O)N[C@@H](CC1CCCCC1)C(=O)Nc1cnc2ccccc2c1.Cl.Cl.Cl.Cl.[Cl-] = 16.7

input: Entry `C[N+](C)(CCN)CCC[C@H](N)C(=O)N[C@H](CCc1ccccc1)C(=O)Nc1cnc2ccccc2c1` : reported clearance = ?
output: 21.5

input: Entry `C[N+](CCN)(CCN)CCC[C@H](N)C(=O)N[C@@H](CCc1ccccc1)C(=O)Nc1cnc2ccccc2c1.Cl.Cl.[Cl-]` : reported clearance = ?
output: 14.2

###

- measurement protocol: Rat serum pharmacokinetics after 1.5-hour IV infusion
- Type: in vivo
- test context: rat serum, 1.5-hour IV infusion, dose 20 mg/kg, two-compartment model; read-out: Clearance (free drug clearance) (converted)
value type: clearance (mL/min/kg)
Output spec: scalar in mL/min/kg, unitless text.

C[N+](CCN)(CCN)CCC[C@H](N)C(=O)N[C@H](CCc1ccc(C(F)(F)F)cc1)C(=O)Nc1cnc2ccccc2c1 = 16.7
C[N+](C)(CCN)CCC[C@H](N)C(=O)N[C@H](CCc1ccccc1)C(=O)Nc1ccc(F)c(F)c1F = 20.5
C[C@@H](N)C(=O)N[C@@H](CCC[N+](C)(CCN)CCN)C(=O)N[C@@H](Cc1ccc(C(F)(F)F)cc1)C(=O)Nc1cnc2ccccc2c1 = 10.8

Field: next molecule
input: Entry `C[N+](CCN)(CCN)CCC[C@H](N)C(=O)N[C@H](CCc1ccccc1)C(=O)Nc1cnc2ccccc2c1` : reported clearance = ?
output: 5.83
